Values were extracted from ChEMBL document CHEMBL1250501.

tested on: Mycobacterium tuberculosis; assay: Antimycobacterial activity against Mycobacterium tuberculosis H37Rv after 3 to 4 weeks by broth microdilution assay; assay type: functional
Checkbox rule: MIC lower than 3 µg/mL = class 1; MIC not lower than 3 µg/mL = class 0.

[
  {
    "cpd-smiles": "CCN1C(N2CCN(C(=O)c3ccc([N+](=O)[O-])o3)CC2)=NS(=O)(=O)c2ccccc21",
    "classification": "class 0"
  },
  {
    "cpd-smiles": "O=C(c1ccc([N+](=O)[O-])o1)N1CCN(C2=NS(=O)(=O)c3ccccc3N2c2ccccc2)CC1",
    "classification": "class 0"
  },
  {
    "cpd-smiles": "CN1C(N2CCN(Cc3ccc([N+](=O)[O-])o3)CC2)=NS(=O)(=O)c2ccccc21",
    "classification": "class 0"
  },
  {
    "cpd-smiles": "O=[N+]([O-])c1ccc(CN2CCN(C3=NS(=O)(=O)c4ccccc4N3c3ccccc3)CC2)o1",
    "classification": "class 1"
  },
  {
    "cpd-smiles": "CCN1C(N2CCN(Cc3ccc([N+](=O)[O-])o3)CC2)=NS(=O)(=O)c2ccccc21",
    "classification": "class 1"
  },
  {
    "cpd-smiles": "CO[C@H]1/C=C/O[C@@]2(C)Oc3c(C)c(O)c4c(O)c(c(/C=N/N5CCN(C)CC5)c(O)c4c3C2=O)NC(=O)/C(C)=C\\C=C\\[C@H](C)[C@H](O)[C@@H](C)[C@@H](O)[C@@H](C)[C@H](OC(C)=O)[C@@H]1C",
    "classification": "class 1"
  },
  {
    "cpd-smiles": "CCN1C(N2CCN(Cc3ccc([N+](=O)[O-])s3)CC2)=NS(=O)(=O)c2ccccc21",
    "classification": "class 0"
  }
]

----------
assay: Cytotoxicity against mouse AML-12 cells assessed as cell viability at 25 ug/ml after 24 hrs by MTT assay; format: cell-based; details: read-out: Activity
measurement-type: viability at 24 h, 25 ug/ml

[
  {
    "cpd-smiles": "O=[N+]([O-])c1ccc(/C=N/NC2=NS(=O)(=O)c3ccccc3N2c2ccccc2)o1",
    "observed-value": "8.5%"
  }
]
